test system: Aspergillus fumigatus; assay: Antifungal activity against Aspergillus fumigatus GIM 3.524 by broth microdilution method; format: functional
readout_type: MIC

Consider the reported MIC for these compounds:
Cc1cc(C(=O)N[C@@H](Cn2ccnc2)C(=O)OC(C)C)nn1-c1ccccc1 ... > 16 µg/mL
CC(C)OC(=O)[C@H](Cn1ccnc1)NC(=O)c1cc(-c2ccc(F)cc2)on1 ... 8 µg/mL
CC(C)COC(=O)[C@H](Cn1ccnc1)NC(=O)c1coc(-c2ccccc2)n1 ... > 16 µg/mL
CC(C)COC(=O)[C@H](Cn1ccnc1)NC(=O)c1ccc(-c2ccccc2)s1 ... > 16 µg/mL
OC(Cn1cncn1)(Cn1cncn1)c1ccc(F)cc1F ... 16 µg/mL

Provide reported MIC for each item, in the same order as listed.
1. CC(C)COC(=O)[C@H](Cn1ccnc1)NC(=O)c1cc(-c2ccccc2)on1
2. CC(C)OC(=O)[C@H](Cn1ccnc1)NC(=O)c1cnc(-c2ccccc2)nc1
3. CC(C)OC(=O)[C@H](Cn1ccnc1)NC(=O)c1coc(-c2ccccc2)n1
4. CC(C)OC(=O)[C@H](Cn1ccnc1)NC(=O)c1ccc(-c2ccccc2)nc1
5. CC(C)OC(=O)[C@H](Cn1ccnc1)NC(=O)c1cc(-c2ccccc2)on1
6. CC(C)OC(=O)[C@H](Cn1ccnc1)NC(=O)c1nc(-c2ccccc2)cs1

a:
1: 4 µg/mL; 2: > 16 µg/mL; 3: > 16 µg/mL; 4: > 16 µg/mL; 5: 4 µg/mL; 6: > 16 µg/mL

---

experiment: Metabolic stability in human plasma assessed as parent compound remaining at 60 mins; format: ADME, cell-free; settings: read-out: Stability
readout_type: remaining at 1 h (%)
Give bare numbers, in %.

CC(C)OC(=O)[C@H](Cn1ccnc1)NC(=O)c1cc(-c2ccccc2F)on1 ... 95.3

Continue with the compound presented below.
q: I would be grateful if you could share the reported remaining at 1 h for CC(C)COC(=O)[C@H](Cn1ccnc1)NC(=O)c1cc(-c2ccccc2F)on1 .
a: 74.6

---

tested on: Candida albicans; assay: Antifungal activity against Candida albicans CPCC 400523 by broth microdilution method; assay type: functional
readout_type: MIC (µg/mL)
One number for each entry, in µg/mL.

Example cases with answers are listed next.
CC(C)OC(=O)[C@H](Cn1ccnc1)NC(=O)c1cc(-c2ccc(F)cc2)on1 ... 2
CC(C)OC(=O)[C@H](Cn1ccnc1)NC(=O)c1ccc(-c2ccccc2)s1 ... 8
CCC(C)n1ncn(-c2ccc(N3CCN(c4ccc(OCC5COC(Cn6cncn6)(c6ccc(Cl)cc6Cl)O5)cc4)CC3)cc2)c1=O (stereo not given) [ITRACONAZOLE] ... 0.125
CC(C)COC(=O)[C@H](Cn1ccnc1)NC(=O)c1cc(-c2ccccc2F)on1 ... 0.125
CC(C)OC(=O)[C@H](Cn1ccnc1)NC(=O)c1ccc(-c2ccccc2)nc1 ... 4
CC(C)COC(=O)[C@H](Cn1ccnc1)NC(=O)c1cc(-c2ccc(Br)cc2)on1 ... 0.125

Turning now to a further molecule:
q: Which MIC value belongs to Cc1nc(-c2ccccc2)sc1C(=O)N[C@@H](Cn1ccnc1)C(=O)OCC(C)C ?
a: 1

---

test system: Candida albicans; test: Antifungal activity against Candida albicans CPCC 400523 by broth microdilution method; format: functional
readout_type: MIC (µg/mL)
Answers are plain numbers, in µg/mL.

Below, each entry is followed by its recorded MIC result.
CC(C)OC(=O)[C@H](Cn1ccnc1)NC(=O)c1cc(-c2ccccc2F)on1 ... 0.25
Cc1ccc(-c2cc(C(=O)N[C@@H](Cn3ccnc3)C(=O)OC(C)C)no2)cc1 ... 0.5
CC(C)COC(=O)[C@H](Cn1ccnc1)NC(=O)c1cnc(-c2ccccc2)nc1 ... 0.5
CC(C)OC(=O)[C@H](Cn1ccnc1)NC(=O)c1cc(-c2ccc(Br)cc2)on1 ... 0.25
CC(C)OC(=O)[C@H](Cn1ccnc1)NC(=O)c1cnc(-c2ccccc2)nc1 ... 1

Consider the following items and state reported MIC for each.
1. Cc1nc(-c2ccccc2)sc1C(=O)N[C@@H](Cn1ccnc1)C(=O)OC(C)C
2. CC(C)COC(=O)[C@H](Cn1ccnc1)NC(=O)c1ccc(-c2ccccc2)s1
3. CC(C)COC(=O)[C@H](Cn1ccnc1)NC(=O)c1cc(-c2ccc(F)cc2)on1
4. OC(Cn1cncn1)(Cn1cncn1)c1ccc(F)cc1F [FLUCONAZOLE]
5. CC(C)COC(=O)[C@H](Cn1ccnc1)NC(=O)c1cc(-c2ccccc2)on1
6. CC(C)OC(=O)[C@H](Cn1ccnc1)NC(=O)c1ccc(-c2ccccc2F)cc1
7. Cc1ccc(-c2cc(C(=O)N[C@@H](Cn3ccnc3)C(=O)OCC(C)C)no2)cc1

a:
1. 2
2. 4
3. 2
4. 2
5. 1
6. 0.25
7. 0.5

q: Fill blank: measured MIC of the compound CC(C)OC(=O)[C@H](Cn1ccnc1)NC(=O)c1cc(-c2ccccc2)on1 is ____.
a: 0.5

---

test: Metabolic stability in human plasma assessed as parent compound remaining at 120 mins; format: ADME, cell-free; conditions: read-out: Stability
Hi there, I'd appreciate the recorded remaining at 2 h for every entry that follows.
One number for each entry, in %.

CC(C)OC(=O)[C@H](Cn1ccnc1)NC(=O)c1cc(-c2ccccc2F)on1 ... 91.8

// next entry
q: Which remaining at 2 h reading was recorded for the compound CC(C)COC(=O)[C@H](Cn1ccnc1)NC(=O)c1cc(-c2ccccc2F)on1 ?
a: 61.4

---

test system: Aspergillus fumigatus; test: Antifungal activity against Aspergillus fumigatus GIM 3.524 by broth microdilution method; format: functional
readout_type: MIC (µg/mL)
Answers are plain numbers, in µg/mL.

Completed entries (count: 2):
Cc1ccc(-c2cc(C(=O)N[C@@H](Cn3ccnc3)C(=O)OCC(C)C)no2)cc1 ... 8
Cc1ccc(-c2cc(C(=O)N[C@@H](Cn3ccnc3)C(=O)OC(C)C)no2)cc1 ... 8

Here are 3 compounds. What values of MIC were reported for them?
1. CCC(C)n1ncn(-c2ccc(N3CCN(c4ccc(OCC5COC(Cn6cncn6)(c6ccc(Cl)cc6Cl)O5)cc4)CC3)cc2)c1=O (stereo not given) [ITRACONAZOLE]
2. CC(C)COC(=O)[C@H](Cn1ccnc1)NC(=O)c1cc(-c2ccccc2F)on1
3. CC(C)OC(=O)[C@H](Cn1ccnc1)NC(=O)c1cc(-c2ccccc2F)on1

a:
[1, 4, 4]

---

tested on: Candida albicans; experiment: Antifungal activity against Candida albicans CPCC 400523 by broth microdilution method; type: functional
Would you mind telling me the reported MIC of each entry?

The following compounds have reported results that may help.
CC(C)OC(=O)[C@H](Cn1ccnc1)NC(=O)c1coc(-c2ccccc2)n1 ... > 16 µg/mL
CC(C)COC(=O)[C@H](Cn1ccnc1)NC(=O)c1csc(-c2ccccc2)n1 ... > 16 µg/mL

# evaluate next
q: Please state recorded MIC (tested on Candida albicans) of CC(C)OC(=O)[C@H](Cn1ccnc1)NC(=O)c1csc(-c2ccccc2)n1
a: > 16 µg/mL
